B-score functional assay listing for selected compounds.
system: human NTCP (Homo sapiens)
measurement-protocol: Screening taurocholate uptake assay (96-well, [14C]taurocholate, 10 µM drug)
condition: screening taurocholate uptake, 10 µM drug
Structures can show the parent of a compound that is named as a salt.
The response must contain the number and no unit.

Record excerpt, results attached:
CCc1cc(C(N)=S)ccn1 [Ethionamide]: 0.084
COc1cc(C(=O)NS(=O)(=O)c2ccccc2C)ccc1Cc1cn(C)c2ccc(NC(=O)OC3CCCC3)cc12 [Zafirlukast]: -7.741
CCC1(CC)C(=O)C=CNC1=O [Pyrithyldione]: 0.404
NS(=O)(=O)c1cc(C(=O)O)cc(N2CCCC2)c1Oc1ccccc1 [Piretanide]: -0.384

Query (compound): c1ccc(C2CN3CCSC3=N2)cc1 (stereo not drawn) [Tetramisole hydrochloride] ; field requested: B-score functional assay
-2.419

Item: CC1(C)S[C@@H]2[C@H](NC(=O)[C@H](N)c3ccc(O)cc3)C(=O)N2[C@H]1C(=O)O [Amoxicillin]
-0.114

---

system: UniProt Q14973
measurement-protocol: Screening taurocholate uptake assay (96-well, [14C]taurocholate, 10 µM drug)
condition: Prestwick library screen, taurocholate uptake, 10 µM drug
Structures can show the parent of a compound that is named as a salt.
We use 0.3 as the dividing line for B-score functional assay: on or above the line is Criterion met, below is Criterion not met.

Answered examples (3):
CCOC(=O)/C=C(C)/C=C/C=C(C)/C=C/c1c(C)cc(OC)c(C)c1C [Etretinate]: Criterion met
CCCc1cc(=O)[nH]c(=S)[nH]1 [Propylthiouracil]: Criterion met
CC(C)NCC(O)COc1cccc2[nH]ccc12 (stereo not drawn) [Pindolol]: Criterion not met

Quick check: does CN(C)[C@@H]1C(O)=C(C(N)=O)C(=O)[C@@]2(O)C(O)=C3C(=O)c4c(O)ccc(Cl)c4[C@@H](O)[C@H]3C[C@@H]12 [Demeclocycline hydrochloride] have B-score functional assay greater than or equal to 0.3?
Criterion not met

Repeat with NS(=O)(=O)c1cc2c(cc1Cl)NC(CC1CCCC1)NS2(=O)=O (stereo not drawn) [Cyclopenthiazide]
Criterion not met

Thanks! And Cc1ccc(-c2cc(C(F)(F)F)nn2-c2ccc(S(N)(=O)=O)cc2)cc1 [Celecoxib] ?
Criterion not met

Check CC(=O)O[C@H]1C[C@@H]2CC[C@@H]3[C@H](CC[C@@]4(C)[C@H]3C[C@H]([N+]3(C)CCCCC3)[C@@H]4OC(C)=O)[C@@]2(C)C[C@@H]1N1CCCCC1 [Vecuronium bromide] too.
Criterion not met

Proceed to CO[C@@H]1[C@@H](O[C@@H]2O[C@H](C)[C@@H](O[C@H]3C[C@@](C)(O)[C@@H](OC(=O)CC(C)C)[C@H](C)O3)[C@H](N(C)C)[C@H]2O)[C@@H](CC=O)C[C@@H](C)[C@@H](O)/C=C/C=C/C[C@@H](C)OC(=O)C[C@H]1OC(C)=O [Josamycin]
Criterion met

Same again, this time with CN(C)CCc1c[nH]c2ccc(Cn3cncn3)cc12 [Rizatriptan benzoate]
Criterion not met

Same thing, different compound: CNCCCN1c2ccccc2CCc2ccccc21 [Desipramine hydrochloride]
Criterion not met

Same lookup for CN1C2CCCC1CC(NC(=O)c1nn(C)c3ccccc13)C2 (stereo not drawn) [Granisetron] , please.
Criterion met

Try this compound too: COc1cccc2c1C(=O)c1c(O)c3c(c(O)c1C2=O)C[C@@](O)(C(C)=O)C[C@@H]3O[C@H]1C[C@H](N)[C@H](O)[C@H](C)O1 [Daunorubicin hydrochloride]
Criterion not met

Please do the same for [H]/N=C(/N)NS(=O)(=O)c1ccc(N)cc1 [Sulfaguanidine] as well.
Criterion not met

Another compound to check: CC(=O)Oc1ccccc1C(=O)Oc1ccccc1C(=O)O [Acetylsalicylsalicylic acid]
Criterion met

Would you mind doing CCCNC(=O)NS(=O)(=O)c1ccc(Cl)cc1 [Chlorpropamide] as well?
Criterion met

What do you have for CCCC(C)(COC(N)=O)COC(=O)NC(C)C (stereo not drawn) [Carisoprodol] ?
Criterion not met

Now consider Clc1ccc(C(Cn2ccnc2)OCc2csc3c(Cl)cccc23)c(Cl)c1 (stereo not drawn) [Sertaconazole nitrate] .
Criterion not met

# repeat for NC(=O)c1ncn([C@@H]2O[C@H](CO)[C@@H](O)[C@H]2O)n1 [Ribavirin]
Criterion met

---

system: human NTCP (Homo sapiens, UniProt Q14973)
Sequence (Q14973 1-349): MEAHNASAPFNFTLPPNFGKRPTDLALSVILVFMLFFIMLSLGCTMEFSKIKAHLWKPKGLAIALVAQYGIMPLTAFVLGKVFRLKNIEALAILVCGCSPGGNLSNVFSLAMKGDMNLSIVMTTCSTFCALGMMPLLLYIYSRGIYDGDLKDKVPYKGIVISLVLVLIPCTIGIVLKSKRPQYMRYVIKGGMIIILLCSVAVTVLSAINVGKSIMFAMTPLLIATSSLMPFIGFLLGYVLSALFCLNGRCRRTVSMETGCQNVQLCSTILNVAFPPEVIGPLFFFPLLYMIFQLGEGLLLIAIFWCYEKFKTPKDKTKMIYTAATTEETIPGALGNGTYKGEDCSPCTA
measurement-protocol: Screening taurocholate uptake assay (96-well, [14C]taurocholate, 10 µM drug)
condition: screening taurocholate uptake, 10 µM drug
outcome-measure: B-score functional assay
I'd appreciate a reply containing only the number, no unit.

C[C@]12CC[C@H]3C(=CCc4cc(O)ccc43)[C@@H]1CCC2=O: -2.643
CC(C)OC(=O)C(C)(C)Oc1ccc(C(=O)c2ccc(Cl)cc2)cc1 [Fenofibrate]: -0.159
COc1cc(N)c(Cl)cc1C(=O)NC1CCN(CCCOc2ccc(F)cc2)CC1OC (centres unmarked) [Cisapride]: -0.847

Recorded B-score functional assay for Cc1c(NC(C)C)c(=O)n(-c2ccccc2)n1C.Cl [Isopyrin hydrochloride] with human NTCP (Homo sapiens, UniProt Q14973), please?
-3.076

Entry to check: CCn1cc(C(=O)[O-])c(=O)c2ccc(C)nc21.[Na+] [Nalidixic acid sodium salt]
-0.033

---

# key: entry, value: B-score functional assay
system: UniProt Q14973
Sequence (Q14973 1-349): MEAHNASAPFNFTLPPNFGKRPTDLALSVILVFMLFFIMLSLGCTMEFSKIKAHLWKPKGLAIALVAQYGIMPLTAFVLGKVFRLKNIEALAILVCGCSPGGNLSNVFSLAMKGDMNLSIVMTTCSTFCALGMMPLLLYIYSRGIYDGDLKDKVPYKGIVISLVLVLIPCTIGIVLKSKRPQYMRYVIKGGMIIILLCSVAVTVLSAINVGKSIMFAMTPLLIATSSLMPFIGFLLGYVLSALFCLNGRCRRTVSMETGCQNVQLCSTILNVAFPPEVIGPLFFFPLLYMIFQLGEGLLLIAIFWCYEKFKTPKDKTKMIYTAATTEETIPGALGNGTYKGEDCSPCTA
measurement-protocol: Screening taurocholate uptake assay (96-well, [14C]taurocholate, 10 µM drug)
condition: screening taurocholate uptake, 10 µM drug
Please reply with the value in numeric form only.

The cases that follow already have their B-score functional assay on record.
COCC(=O)Nc1c(I)c(C(=O)NCC(O)CO)c(I)c(C(=O)N(C)CC(O)CO)c1I (stereo not drawn) [Iopromide]: -5.088
O=C1NCN(c2ccccc2)C12CCN(CCCC(c1ccc(F)cc1)c1ccc(F)cc1)CC2: 0.19

Next, consider the following compound.
Bench note: what B-score functional assay did `OC(c1ccccc1)(c1ccccc1)C1CCNCC1` show?
-0.041

---

system: UniProt:Q14973
measurement-protocol: Screening fluorescent competitive Myrcludex B-FITC binding assay (96-well, 10 µM drug)
condition: Prestwick library screen, Myrcludex B-FITC binding, 10 µM drug
Where a name gives a salt, the structure may show the parent alone.
outcome-measure: B-score binding assay
No unit in the answer, only the number.

Known results for compounds:
CC(C)(C)C(=O)OCOC(=O)[C@@H]1N2C(=O)[C@@H](/N=C/N3CCCCCC3)[C@H]2SC1(C)C [Pivmecillinam hydrochloride]: 0.838
CCC(=O)O[C@@H](O[P@](=O)(CCCCc1ccccc1)CC(=O)N1C[C@H](C2CCCCC2)C[C@H]1C(=O)O)C(C)C: -0.621
CC(=O)O[C@H]1C(=O)[C@@]2(C)[C@H]([C@H](OC(=O)c3ccccc3)[C@]3(O)C[C@H](OC(=O)[C@H](O)[C@@H](NC(=O)c4ccccc4)c4ccccc4)C(C)=C1C3(C)C)[C@]1(OC(C)=O)CO[C@@H]1C[C@@H]2O: 0.829
CC(=O)Oc1ccccc1C(=O)Oc1ccccc1C(=O)O: -0.007
COc1cccc2c1C(=O)c1c(O)c3c(c(O)c1C2=O)C[C@@](O)(C(C)=O)C[C@@H]3O[C@H]1C[C@H](N)[C@H](O)[C@H](C)O1 [Daunorubicin hydrochloride]: 6.093
C[C@@H]1CN([C@H]2CC[C@](C#N)(c3ccc(F)cc3)CC2)CC[C@]1(C(=O)O)c1ccccc1 [Levocabastine hydrochloride]: 1.175

Any idea what its B-score binding assay is? The compound is CC(=O)N(CC(O)CO)c1c(I)c(C(=O)NCC(O)CO)c(I)c(C(=O)NCC(O)CO)c1I (stereo not shown) [Iohexol]
0.046

Could you do the same for CCN(CC)CC(=O)Nc1c(C)cccc1C [Lidocaine hydrochloride] , please?
0.07

Repeat for the following compound: CC1NC(=O)NC1=O (stereo not shown)
-0.07

What about this compound? `CC(=O)Nc1ccc(CC(=O)O)cc1`
1.648
